The reported numbers originate from the supplement of paper PMC10307832.

system: NCI-H2342; experiment: relative viability (nuclei count vs DMSO), 5 days (fraction); higher = more cells survive; conditions: first compound 0.5 µM
So I've got a bunch of molecules here, and I need their relative viability values.
When you answer, write just the number.

// lookup relative viability for CC1(C)CCC(c2ccc(Cl)cc2)=C(CN2CCN(c3ccc(C(=O)NS(=O)(=O)c4ccc(N[C@H](CCN5CCOCC5)CSc5ccccc5)c(S(=O)(=O)C(F)(F)F)c4)cc3)CC2)C1 [Navitoclax] + CC(=O)c1c(C)c2cnc(Nc3ccc(N4CCNCC4)cn3)nc2n(C2CCCC2)c1=O [Palbociclib] (partner 0.5 µM)
0.629

What would you report for CC1(C)CCC(c2ccc(Cl)cc2)=C(CN2CCN(c3ccc(C(=O)NS(=O)(=O)c4ccc(N[C@H](CCN5CCOCC5)CSc5ccccc5)c(S(=O)(=O)C(F)(F)F)c4)cc3)CC2)C1 [Navitoclax] + COc1cccc2cc(-c3nc([C@H]4CC[C@H](C(=O)O)CC4)n4ncnc(N)c34)[nH]c12 [OSI-027] (partner 0.5 µM) ?
0.525

What would you report for CC1(C)CCC(c2ccc(Cl)cc2)=C(CN2CCN(c3ccc(C(=O)NS(=O)(=O)c4ccc(N[C@H](CCN5CCOCC5)CSc5ccccc5)c(S(=O)(=O)C(F)(F)F)c4)cc3)CC2)C1 [Navitoclax] + Cc1cc(Nc2cc(N3CCN(C)CC3)nc(Sc3ccc(NC(=O)C4CC4)cc3)n2)n[nH]1 [Tozasertib] (partner 0.1 µM) ?
0.548
